Data provenance: PubChem BioAssay (NCI)

Tested on: UACC-257 melanoma
Test: NCI tumour cell line growth inhibition, 48 h
experimental-readout: GI50

compound: C[C@@]12CCC[C@@](C)(C(=O)O)C1CC[C@]13C=C(CO)[C@](O)(CCC12)C3 (some centres not stated)
GI50: > 100 µM
--
compound: C=CC[Se]C(=O)c1ccccc1OC(C)=O
GI50: 2.09 µM
--
compound: O=C1OCC2=C1C(c1cccc([N+](=O)[O-])c1)c1cc3c(cc1N2CCO)CCC3 (configuration not stated)
GI50: 11.5 µM

--- query ---
Query: Can you share its GI50? I mean this compound: "Cn1c(=O)c(Sc2ccccc2F)cc2cnc(NC3CCOCC3)nc21"
Result: > 25 µM
